Answer each item with its documented self-cleavage.
B1: Hairpin Ribozyme (parent)
chain: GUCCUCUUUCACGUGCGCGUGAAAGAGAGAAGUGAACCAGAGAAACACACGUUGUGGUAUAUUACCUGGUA

Variants of: B1
assayText: self-cleavage, relative activity (ratio to wild type); higher = more cleavage; co-transcriptional
Give the figure by itself; no unit, no explanation.

Query: Give reported self-cleavage value for A41G U55G
Reply: 0.138

Query: Supply self-cleavage value. Item: C18A A22G
Reply: 0.857

Query: Retrieve self-cleavage measured for G13U G27A and print it.
Reply: 0.347

Query: Provide measured self-cleavage value, entry: G13U A61U
Reply: 0.181

Query: Identify measured self-cleavage corresponding to U2G G40A
Reply: 0.105

Query: # return recorded self-cleavage for input A23G U70A
Reply: 0.741

Query: Determine its reported self-cleavage: A45U G54C
Reply: 0.23

Query: Give recorded self-cleavage. A11G G21C
Reply: 0.618

Query: Provide measured self-cleavage value, entry: A24G G56C
Reply: 0.14

Query: Indicate the recorded self-cleavage value for this variant: A36G A39U
Reply: 0.517

Query: // fetch self-cleavage given entry U33A U58G
Reply: 0.135

Query: Give self-cleavage for U20A A39C
Reply: 0.403

Query: Quote self-cleavage reported for G13A G32C please.
Reply: 0.136

Query: Name the recorded self-cleavage of the item C4G G68U in your answer.
Reply: 0.0845

Query: Quote self-cleavage reported for A22G C50U please.
Reply: 0.362

Query: // Input: A22C U53C . Output its self-cleavage only.
Reply: 1.03

Query: Kindly indicate its recorded self-cleavage. Item: A24C A28U
Reply: 0.592

Query: Answer with the recorded self-cleavage of C12G U20C only.
Reply: 1.01

Query: Return value of self-cleavage for input C3A U8G , no commentary.
Reply: 0.541

Query: Provide one value: measured self-cleavage of G15C U62C
Reply: 0.0966

Query: Read off the recorded self-cleavage for A11C A71U
Reply: 0.747

Query: Assign self-cleavage to the following record: A22U U53G
Reply: 0.817

Query: Give the reported value of self-cleavage for this record: C6G C16A
Reply: 0.54

Query: Return self-cleavage for the following variant: U7G C65G
Reply: 0.31

Query: Item C6G G54C : provide self-cleavage
Reply: 0.265

Query: Look up and report measured self-cleavage for this entry: G13C U60G
Reply: 0.479

Query: Given the variant C18G C37U , write its reported self-cleavage.
Reply: 0.493

Query: // fetch self-cleavage given entry C38U G40C
Reply: 0.118

Query: Using known records, supply self-cleavage for U8C G27U
Reply: 0.158

Query: // Input: G27C C65G . Output its self-cleavage only.
Reply: 0.152

Query: Give a short answer stating reported self-cleavage for G54A C65U .
Reply: 0.102

Query: // fetch self-cleavage given entry C50A U67C
Reply: 0.0958

Query: Specify measured self-cleavage for U14C C48U .
Reply: 0.117

Query: Provide one value: measured self-cleavage of C6U A64U
Reply: 0.16

Query: Consider the variant G13U G51C and give its recorded self-cleavage.
Reply: 0.745

Query: Determine its reported self-cleavage: A24U C66A
Reply: 0.137
